The values you see were collected from ChEMBL document CHEMBL4417631.

Measured half-life at 20 µM accompanies every entry in the list below.
EXPERIMENT: Half life in simulated gastric fluid at 20 uM by LC-MS/MS analysis
Type: ADME

COc1ccc(C[C@H](NC(=O)[C@@H]2CSCC[C@H](NC(C)=O)C(=O)N[C@@H](CCC(N)=O)C(=O)N[C@@H]([C@@H](C)O)C(=O)N[C@@H](Cc3c[nH]c4ccccc34)C(=O)N[C@@H](CCC(N)=O)C(=O)N2)C(=O)N[C@@H](Cc2ccc3ccccc3c2)C(=O)N[C@@](C)(CCCN)C(=O)N[C@@H](CCCCNC(C)=O)C(=O)N[C@@H](CC(N)=O)C(=O)NCC(N)=O)cc1
< 1 h

Let us move to another entry and its half-life at 20 µM.
Lookup result for `COc1ccc(C[C@H](NC(=O)[C@@H]2CSCC[C@H](NC(C)=O)C(=O)N[C@@H](CCC(N)=O)C(=O)N[C@@H]([C@@H](C)O)C(=O)N[C@@H](Cc3c[nH]c4ccccc34)C(=O)N[C@@H](CCC(N)=O)C(=O)N2)C(=O)N[C@@H](Cc2ccc3ccccc3c2)C(=O)N[C@@](C)(CCCCN)C(=O)N[C@@H](CCCCNC(C)=O)C(=O)N[C@@H](CC(N)=O)C(=O)NCC(N)=O)cc1` ; measured half-life at 20 µM: < 1 h

----------
EXPERIMENT: Half life in simulated intestinal fluid at 20 uM by LC-MS/MS analysis
Type: ADME
ENDPOINT_LABEL: half-life at 20 µM

CC(=O)N[C@H]1CCSC[C@@H](C(=O)N[C@@H](Cc2ccc(OCCN)cc2)C(=O)N[C@@H](Cc2ccc3ccccc3c2)C(=O)NC2(C(=O)N[C@@H](CCC(=O)O)C(=O)N[C@@H](CC(N)=O)C(=O)N[C@@H](CC(N)=O)C(N)=O)CCNCC2)NC(=O)[C@H](CCC(N)=O)NC(=O)[C@H](Cc2c[nH]c3ccccc23)NC(=O)[C@H]([C@@H](C)O)NC(=O)[C@H](CCC(N)=O)NC1=O
> 6 h
CC(=O)NCCCC[C@H](NC(=O)C(C)(C)NC(=O)[C@H](Cc1ccc2ccccc2c1)NC(=O)[C@H](Cc1ccc(OCCN)cc1)NC(=O)[C@@H](NC(=O)[C@H](CCC(N)=O)NC(=O)[C@H](Cc1c[nH]c2ccccc12)NC(=O)[C@@H](NC(=O)[C@H](CC(N)=O)NC(=O)[C@@H](NC(=O)[C@@H](Cc1ccccc1)NC(C)=O)C(C)(C)S)[C@@H](C)O)C(C)(C)S)C(=O)N[C@@H](CC(N)=O)C(=O)N[C@@H](CC(N)=O)C(N)=O
> 6 h

Let us move to another entry and its half-life at 20 µM.
Lookup result for `COc1ccc(C[C@H](NC(=O)[C@@H](NC(=O)[C@H](CCC(N)=O)NC(=O)[C@H](Cc2c[nH]c3ccccc23)NC(=O)[C@@H](NC(=O)[C@H](CCC(N)=O)NC(=O)[C@@H](NC(C)=O)C(C)(C)S)[C@@H](C)O)C(C)(C)S)C(=O)N[C@@H](Cc2ccc3ccccc3c2)C(=O)NC(C)(C)C(=O)N[C@@H](CCC(=O)O)C(=O)N[C@@H](CC(N)=O)C(=O)N[C@@H](CC(N)=O)C(N)=O)cc1` ; measured half-life at 20 µM: 2 to 3 h

----------
TARGET_ENTITY: Interleukin-23 receptor (Homo sapiens, UniProt Q5VWK5)
Sequence (Q5VWK5 whole entry): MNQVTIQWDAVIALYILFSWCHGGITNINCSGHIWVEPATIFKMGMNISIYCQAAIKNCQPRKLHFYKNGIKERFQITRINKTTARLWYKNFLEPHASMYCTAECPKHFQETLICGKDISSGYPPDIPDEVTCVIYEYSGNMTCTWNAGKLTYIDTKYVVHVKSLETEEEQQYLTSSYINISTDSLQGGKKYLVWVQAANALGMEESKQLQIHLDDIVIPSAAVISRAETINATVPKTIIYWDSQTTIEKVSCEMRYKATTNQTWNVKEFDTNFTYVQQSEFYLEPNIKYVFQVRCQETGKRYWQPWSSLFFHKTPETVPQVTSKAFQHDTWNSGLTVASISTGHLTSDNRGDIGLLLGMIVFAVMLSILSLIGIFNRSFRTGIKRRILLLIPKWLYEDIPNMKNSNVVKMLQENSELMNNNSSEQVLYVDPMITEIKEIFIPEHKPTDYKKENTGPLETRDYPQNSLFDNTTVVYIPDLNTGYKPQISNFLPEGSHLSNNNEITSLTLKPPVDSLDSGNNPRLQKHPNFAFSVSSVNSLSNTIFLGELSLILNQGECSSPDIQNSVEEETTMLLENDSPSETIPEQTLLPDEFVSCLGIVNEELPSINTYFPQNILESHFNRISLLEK
EXPERIMENT: Inhibition of interleukin-23 receptor in human DB cells assessed as reduction in IL-23-stimulated STAT3 phosphorylation incubated for 30 mins by HTRF assay
Type: cell-based
ENDPOINT_LABEL: IC50

CC(=O)N[C@H]1CCSC[C@@H](C(=O)N[C@@H](Cc2ccc(OCCN)cc2)C(=O)N[C@@H](Cc2ccc3ccccc3c2)C(=O)N[C@@](C)(CCCCN)C(=O)N[C@@H](CCCCNC(=O)c2ccccc2)C(=O)N[C@@H](CC(N)=O)C(=O)NCC(N)=O)NC(=O)[C@H](CCC(N)=O)NC(=O)[C@H](Cc2c[nH]c3ccccc23)NC(=O)[C@H]([C@@H](C)O)NC(=O)[C@H](CCC(N)=O)NC1=O
< 10 nM
CC(=O)N[C@H](C(=O)N[C@@H](CO)C(=O)N[C@H](C(=O)N[C@@H](Cc1c[nH]c2ccccc12)C(=O)N[C@@H](CCC(N)=O)C(=O)N[C@H](C(=O)N[C@@H](Cc1ccc(OCCN)cc1)C(=O)N[C@@H](Cc1ccc2ccccc2c1)C(=O)N[C@@](C)(CCCCN)C(=O)N[C@@H](CCC(=O)O)C(=O)N[C@@H](CC(N)=O)C(=O)NCC(N)=O)C(C)(C)S)[C@@H](C)O)C(C)(C)S
< 10 nM
CC(=O)N[C@H](C(=O)N[C@@H](CN)C(=O)N[C@H](C(=O)N[C@@H](Cc1c[nH]c2ccccc12)C(=O)N[C@@H](CCC(N)=O)C(=O)N[C@H](C(=O)N[C@@H](Cc1ccc(OCCN)cc1)C(=O)N[C@@H](Cc1ccc2ccccc2c1)C(=O)N[C@@](C)(CCCCN)C(=O)N[C@@H](CCC(=O)O)C(=O)N[C@@H](CC(N)=O)C(=O)NCC(N)=O)C(C)(C)S)[C@@H](C)O)C(C)(C)S
< 10 nM
COc1ccc(C[C@H](NC(=O)[C@@H]2CSCC[C@H](NC(C)=O)C(=O)N[C@@H](CCC(N)=O)C(=O)N[C@@H]([C@@H](C)O)C(=O)N[C@@H](Cc3c[nH]c4ccccc34)C(=O)N[C@@H](CCC(N)=O)C(=O)N2)C(=O)N[C@@H](Cc2ccc3ccccc3c2)C(=O)N[C@@](C)(CCCCN)C(=O)N[C@@H](CCCCNC(C)=O)C(=O)N[C@@H](CC(N)=O)C(=O)NCC(N)=O)cc1
< 10 nM
CC(=O)N[C@H](C(=O)N[C@@H](CC(N)=O)C(=O)N[C@H](C(=O)N[C@@H](Cc1c[nH]c2ccccc12)C(=O)N[C@@H](CCC(N)=O)C(=O)N[C@H](C(=O)N[C@@H](Cc1ccc(OCCN)cc1)C(=O)N[C@@H](Cc1ccc2ccccc2c1)C(=O)N[C@@H](CCC(C)C)C(=O)N[C@@H](CCC(=O)O)C(=O)N[C@@H](CC(N)=O)C(=O)N[C@@H](C)C(N)=O)C(C)(C)S)[C@@H](C)O)C(C)(C)S
< 10 nM

Lookup result for `COc1ccc(C[C@H](NC(=O)[C@@H]2CSCC[C@H](NC(C)=O)C(=O)N[C@@H](CCC(N)=O)C(=O)N[C@@H]([C@@H](C)O)C(=O)N[C@@H](Cc3c[nH]c4ccccc34)C(=O)N[C@@H](CCC(N)=O)C(=O)N2)C(=O)N[C@@H](Cc2ccc3ccccc3c2)C(=O)N[C@@](C)(CCCN)C(=O)N[C@@H](CCC(=O)O)C(=O)N[C@@H](CC(N)=O)C(=O)NCC(N)=O)cc1` ; measured IC50: < 10 nM

Lookup result for `CC(=O)NCCOc1ccc(C[C@H](NC(=O)[C@@H](NC(=O)[C@H](CCC(N)=O)NC(=O)[C@H](Cc2c[nH]c3ccccc23)NC(=O)[C@@H](NC(=O)[C@H](CCC(N)=O)NC(=O)[C@@H](NC(C)=O)C(C)(C)S)[C@@H](C)O)C(C)(C)S)C(=O)N[C@@H](Cc2ccc3ccccc3c2)C(=O)N[C@@](C)(CC(C)C)C(=O)N[C@@H](CCC(N)=O)C(=O)N[C@@H](CC(N)=O)C(=O)N[C@@H](CC(N)=O)C(N)=O)cc1` ; measured IC50: < 10 nM

Lookup result for `COc1ccc(C[C@H](NC(=O)[C@@H](NC(=O)[C@H](CCC(N)=O)NC(=O)[C@H](Cc2c[nH]c3ccccc23)NC(=O)[C@@H](NC(=O)[C@H](CC(N)=O)NC(=O)[C@@H](NC(C)=O)C(C)(C)S)[C@@H](C)O)C(C)(C)S)C(=O)N[C@@H](Cc2ccc3ccccc3c2)C(=O)NC(C)(C)C(=O)N[C@@H](CCCCNC(C)=O)C(=O)N[C@@H](CC(N)=O)C(=O)N[C@@H](CC(N)=O)C(N)=O)cc1` ; measured IC50: < 10 nM

Lookup result for `COc1ccc(C[C@H](NC(=O)[C@@H](NC(=O)[C@H](CCC(N)=O)NC(=O)[C@H](Cc2c[nH]c3ccccc23)NC(=O)[C@@H](NC(=O)[C@H](CCC(N)=O)NC(=O)[C@@H](NC(C)=O)C(C)(C)S)[C@@H](C)O)C(C)(C)S)C(=O)N[C@@H](Cc2ccc3ccccc3c2)C(=O)NC(C)(C)C(=O)N[C@@H](CCCCNC(C)=O)C(=O)N[C@@H](CC(N)=O)C(=O)N[C@@H](CCC(N)=O)C(N)=O)cc1` ; measured IC50: < 10 nM

Lookup result for `CC(=O)NCCCC[C@H](NC(=O)C(C)(C)NC(=O)[C@H](Cc1ccc2ccccc2c1)NC(=O)[C@H](Cc1ccc(OCCN)cc1)NC(=O)[C@@H](NC(=O)[C@H](CCC(N)=O)NC(=O)[C@H](Cc1c[nH]c2ccccc12)NC(=O)[C@@H](NC(=O)[C@@H](NC(=O)[C@@H](NC(C)=O)C(C)(C)S)[C@@H](C)O)[C@@H](C)O)C(C)(C)S)C(=O)N[C@@H](CC(N)=O)C(=O)N[C@@H](CCC(N)=O)C(N)=O` ; measured IC50: < 10 nM
